assay: logP determination by HPLC on a reversed-phase column (C18); format: physicochemical; details: HPLC-MS, reversed-phase column (C18); Table I-T3
outcome measure: log P
Respond numerically, and do not add a unit to the figure.

Some solved entries appear below for comparison.
N#CC1(NC(=O)c2cc(-c3cnn(-c4c(Cl)cc(C(F)(C(F)(F)F)C(F)(F)F)cc4OC(F)F)c3)cnc2Cl)CC1 [I-T3-218]
3.7
Cc1ncc(-c2cnn(-c3c(Cl)cc(C(F)(F)F)cc3Cl)c2)cc1C(=O)N(C)C1CC1 [I-T3-128]
2.8

Now for the compound whose log P we want.
Please give the documented log P of O=C(NC1CC1)c1cc(-c2cnn(-c3c(Cl)cc(C(F)(C(F)(F)F)C(F)(F)F)cc3Cl)c2)cnc1N1CCCC1 [I-T3-135]
4.3

* * *

Overview of recorded logP^a) for various compounds
experiment: logP determination by HPLC on a reversed-phase column (C18); assay type: physicochemical; details: HPLC-MS method a), reversed-phase column (C18); Table I-T3
// no unit string in output, number only

Before answering, review these 3 worked examples.
CCc1cc(C(F)(C(F)(F)F)C(F)(F)F)cc(C)c1-n1cc(-c2ccc(Cl)c(C(=O)NC3(C#N)CC3)c2)cn1 [I-T3-46]
4.6
N#CC1(NC(=O)c2cc(-c3cnn(-c4c(Cl)cc(C(F)(C(F)(F)F)C(F)(F)F)cc4C(F)(F)F)c3)ccc2Cl)CC1 [I-T3-57]
4.3
CCc1cc(C(F)(C(F)(F)F)C(F)(F)F)ccc1-n1cc(-c2cncc(C(=O)NC3CC3)c2)cn1 [I-T3-79]
3.3

API: the following record is the query input.
Entry O=C(NC1CSC1)c1cc(-c2cnn(-c3ccc(C(F)(C(F)(F)F)C(F)(F)F)cc3OC(F)(F)F)c2)ccc1Cl [I-T3-37] needs its logP^a) filled in; supply it.
4.9

* * *

experiment: logP determination by HPLC on a reversed-phase column (C18); assay type: physicochemical; conditions: HPLC-MS method a), reversed-phase column (C18); Table I-T3
outcome measure: logP^a)
Reply briefly: the number, and no unit.

N#CC1(NC(=O)c2cc(-c3cnn(-c4c(F)cc(C(F)(C(F)(F)F)C(F)(F)F)cc4F)c3)ccc2Cl)CC1 [I-T3-62]
3.9

Turning now to a further record.
// Input: Cc1ccc(C(=O)NC2CC2)cc1-c1cnn(-c2c(C)cc(C(F)(C(F)(F)F)C(F)(F)F)cc2C)c1 [I-T3-16] . Output its logP^a) only.
4.4

* * *

assay: logP determination by HPLC on a reversed-phase column (C18); format: physicochemical; conditions: HPLC-MS method a)
outcome measure: logP^a)
Please state the value as a number alone, without comment.

Solved entries (count: 3):
O=C(NC1CC1)c1cc(-c2cnn(-c3ccc(OC(F)(F)F)cc3Cl)c2)ccc1Cl
3.6
Cc1cc(C(F)(C(F)(F)F)C(F)(F)F)cc(C)c1-n1cc(-c2cnc(C)c(C(=O)NC3CC3)c2)cn1
3.3
CCc1cc(C(F)(C(F)(F)F)C(F)(F)F)ccc1-n1cc(-c2ccc(Cl)c(C(=O)NC3CC3)c2)cn1
4.6

Give the measured logP^a) for CCc1cc(C(F)(C(F)(F)F)C(F)(F)F)ccc1-n1cc(-c2ccc(Cl)c(C(=O)NCC(F)(F)F)c2)cn1
4.9

* * *

test: logP determination by HPLC on a reversed-phase column (C18); type: physicochemical; settings: HPLC-MS, reversed-phase column (C18); Table I-T3
outcome measure: log P
Respond with the number and no other words.

Cc1ncc(-c2cnn(-c3c(Cl)cc(C(F)(F)F)cc3Cl)c2)cc1C(=O)N(C)C1(C#N)CC1
2.9
Cc1ncc(-c2cnn(-c3c(Cl)cc(C(F)(C(F)(F)F)C(F)(F)F)cc3C(F)(F)F)c2)cc1C(=O)N(C)C1CC1
3.8
O=C(NC1CC1)c1cc(-c2cnn(-c3ccc(OC(F)(F)F)cc3Cl)c2)ccc1Cl
3.6

We next turn to a different molecule, shown below.
Consider the molecule O=C(NC1CC1)c1cc(-c2cnn(-c3c(Cl)cc(C(F)(C(F)(F)F)C(F)(F)F)cc3OC(F)(F)F)c2)cnc1Cl and give its recorded log P.
4.3

* * *

assay: logP determination by HPLC on a reversed-phase column (C18); format: physicochemical; settings: HPLC-MS method a)
outcome measure: logP^a)
Answer using only a numeral; do not append any unit.

For orientation, consider the following solved cases.
Cc1cc(C(F)(C(F)(F)F)C(F)(F)F)cc(C)c1-n1cc(-c2cc(C(=O)NC3CC3)cc(C(F)(F)F)c2)cn1
4.9
CCc1cc(C(F)(C(F)(F)F)C(F)(F)F)ccc1-n1cc(-c2cccc(C(=O)NC3(C#N)CC3)c2F)cn1
4.1
N#CC1(NC(=O)c2cc(-c3cnn(-c4ccc(OC(F)(F)F)cc4Cl)c3)ccc2Cl)CC1
3.5
Cc1cc(C(F)(C(F)(F)F)C(F)(F)F)cc(C)c1-n1cc(-c2cc(C(=O)NC3CC3)c(F)cc2Cl)cn1
4.9
Cc1cc(C(F)(C(F)(F)F)C(F)(F)F)cc(C)c1-n1cc(-c2ccc(Cl)c(C(=O)NCC(=O)NCC(F)(F)F)c2)cn1
4.1

Identify the reported logP^a) for the following entry. O=C(NCC(F)(F)F)c1cc(-c2cnn(-c3c(Cl)cc(C(F)(C(F)(F)F)C(F)(F)F)cc3C(F)(F)F)c2)ccc1Cl
4.7

Identify measured logP^a) associated with Cc1ccc(C(=O)NC2CC2)cc1-c1cnn(-c2c(C)cc(C(F)(C(F)(F)F)C(F)(F)F)cc2C)c1
4.4

Dear colleague, please send me the reported logP^a) for O=C(NC1CC1)c1cc(-c2cnn(-c3c(Cl)cc(OC(F)(F)F)cc3Cl)c2)ccc1Cl when you can.
3.6

* * *

experiment: logP determination by HPLC on a reversed-phase column (C18); assay type: physicochemical; settings: HPLC-MS method a), reversed-phase column (C18); Table I-T3
Overview of recorded logP^a) for various compounds
API doc: respond with a numeric literal and nothing else, no unit.

# annotated cases, reported logP^a) shown
N#CC1(NC(=O)c2cc(-c3cnn(-c4ccc(C(F)(C(F)(F)F)C(F)(F)F)cc4C(F)(F)F)c3)ccc2Cl)CC1 [I-T3-53]
4.3
O=C(NCC(F)(F)F)c1cc(-c2cnn(-c3ccc(C(F)(C(F)(F)F)C(F)(F)F)cc3Cl)c2)ccc1Cl [I-T3-32]
4.7

Complete the entry with logP^a) for Cc1cc(C(F)(C(F)(F)F)C(F)(F)F)cc(Cl)c1-n1cc(-c2ccc(Cl)c(C(=O)NC3(C#N)CC3)c2)cn1 [I-T3-64]
4.2

Quote logP^a) reported for CCc1cc(C(F)(C(F)(F)F)C(F)(F)F)cc(C)c1-n1cc(-c2cccc(C(=O)NC3CC3)c2F)cn1 [I-T3-70] please.
4.7

// Input: Cc1cc(C(F)(C(F)(F)F)C(F)(F)F)cc(C(F)(F)F)c1-n1cc(-c2ccc(Cl)c(C(=O)NCC(F)(F)F)c2)cn1 [I-T3-84] . Output its logP^a) only.
4.7

Please give the documented logP^a) of Cc1cc(C(F)(C(F)(F)F)C(F)(F)F)cc(C)c1-n1cc(-c2cncc(C(=O)NC3(C#N)CC3)c2)cn1 [I-T3-8]
3.4

// fetch logP^a) given entry O=C(NC1CC1)c1c(Cl)ccc(-c2cnn(-c3c(Cl)cc(C(F)(C(F)(F)F)C(F)(F)F)cc3Cl)c2)c1F [I-T3-73]
4.5

* * *

assay: logP determination by HPLC on a reversed-phase column (C18); assay type: physicochemical; conditions: HPLC-MS method a), reversed-phase column (C18)
We begin with a simple list: items and their reported logP^a).
Could you respond with only the numeric value?

CCc1cc(C(F)(C(F)(F)F)C(F)(F)F)cc(C)c1-n1cc(-c2cnc(Cl)c(C(=O)NC3(C#N)CC3)c2)cn1
4.1

Answer with the recorded logP^a) of CCNC(=O)c1cc(-c2cnn(-c3c(Cl)cc(C(F)(F)F)cc3Cl)c2)cnc1C only.
4.0

Provide only the value of recorded logP^a) for COCCNc1ncc(-c2cnn(-c3c(Cl)cc(C(F)(C(F)(F)F)C(F)(F)F)cc3Cl)c2)cc1C(=O)NC1CC1
4.1

Output measured logP^a) for this item: N#CC1(NC(=O)c2cc(-c3cnn(-c4ncc(C(F)(C(F)(F)F)C(F)(F)F)cc4Cl)c3)ccc2Cl)CC1
4.0

* * *

test: logP determination by HPLC on a reversed-phase column (C18); type: physicochemical; details: HPLC-MS, reversed-phase column (C18); Table I-T3
outcome measure: log P
// response body must contain only the number

Use the examples below as a reference point.
CCS(=O)(=O)c1cc(C(F)(C(F)(F)F)C(F)(F)F)cc(Cl)c1-n1cc(-c2ccc(Cl)c(C(=O)NC3(C#N)CC3)c2)cn1 [I-T3-201]
4.0
N#CC1(NC(=O)c2cc(-c3cnn(-c4c(Br)cc(C(F)(C(F)(F)F)C(F)(F)F)cc4C(F)(F)F)c3)cnc2Cl)CC1 [I-T3-165]
3.9
CCNC(=O)c1cc(-c2cnn(-c3c(Cl)cc(C(F)(F)F)cc3Cl)c2)cnc1C [I-T3-147]
4.0

Now consider the entry below.
Give log P for N#CC1(NC(=O)c2cc(-c3cnn(-c4c(Cl)cc(C(F)(C(F)(F)F)C(F)(F)F)cc4C(F)(F)F)c3)cnc2Cl)CC1 [I-T3-114]
4.0

Hey, just so you know, these numbers are from patent US10150737B2.
